Overview of recorded inhibition at 10 µM for various compounds
biological target: activated IGF-1R (Homo sapiens); construct: purchased Millipore 14-802; assay: In vitro IGF-1R enzymatic assay (ADP-Glo); type: biochemical; conditions: compound 10 μM, ATP 100 μM
Sequence (P08069 31-1367): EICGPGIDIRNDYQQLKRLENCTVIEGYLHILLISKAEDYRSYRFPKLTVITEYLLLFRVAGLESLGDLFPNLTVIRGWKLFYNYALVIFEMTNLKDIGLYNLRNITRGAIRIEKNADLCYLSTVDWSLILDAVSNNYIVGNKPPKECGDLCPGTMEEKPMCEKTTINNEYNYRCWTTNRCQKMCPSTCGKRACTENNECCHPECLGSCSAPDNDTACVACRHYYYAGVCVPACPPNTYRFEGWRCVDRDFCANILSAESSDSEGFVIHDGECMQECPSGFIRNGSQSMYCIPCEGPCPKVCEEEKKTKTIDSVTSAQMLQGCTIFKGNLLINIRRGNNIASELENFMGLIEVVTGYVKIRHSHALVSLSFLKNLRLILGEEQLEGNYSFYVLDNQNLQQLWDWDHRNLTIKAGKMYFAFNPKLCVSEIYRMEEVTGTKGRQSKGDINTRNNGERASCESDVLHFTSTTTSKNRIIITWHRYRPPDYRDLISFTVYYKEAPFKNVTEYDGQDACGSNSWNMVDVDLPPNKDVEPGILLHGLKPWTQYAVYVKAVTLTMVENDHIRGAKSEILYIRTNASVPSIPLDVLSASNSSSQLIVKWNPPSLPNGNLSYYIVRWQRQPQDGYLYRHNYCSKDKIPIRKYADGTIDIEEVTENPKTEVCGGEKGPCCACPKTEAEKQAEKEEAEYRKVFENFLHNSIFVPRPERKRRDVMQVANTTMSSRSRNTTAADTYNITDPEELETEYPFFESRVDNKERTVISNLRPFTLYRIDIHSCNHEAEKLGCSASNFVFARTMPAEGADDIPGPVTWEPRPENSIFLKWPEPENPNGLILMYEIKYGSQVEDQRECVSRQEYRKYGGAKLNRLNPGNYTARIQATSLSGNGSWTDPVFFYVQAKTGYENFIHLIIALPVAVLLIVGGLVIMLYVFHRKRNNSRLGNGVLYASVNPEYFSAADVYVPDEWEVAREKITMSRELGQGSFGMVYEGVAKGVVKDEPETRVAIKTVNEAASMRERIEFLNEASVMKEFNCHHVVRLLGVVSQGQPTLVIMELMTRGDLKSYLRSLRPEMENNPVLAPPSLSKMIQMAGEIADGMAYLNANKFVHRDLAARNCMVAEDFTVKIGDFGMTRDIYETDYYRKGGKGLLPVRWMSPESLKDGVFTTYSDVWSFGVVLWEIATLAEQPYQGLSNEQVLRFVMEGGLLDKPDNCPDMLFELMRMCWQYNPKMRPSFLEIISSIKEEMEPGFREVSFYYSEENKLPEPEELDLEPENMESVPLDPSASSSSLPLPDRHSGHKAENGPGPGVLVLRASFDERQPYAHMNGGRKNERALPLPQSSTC

• O=C([C@@H]1CCCN1c1nc2c(c(Nc3cc(C4CCCC4)[nH]n3)n1)CCC2)N1CCC(F)(F)C1 [109b] = 61%
• CC(=O)N1CCN(C(=O)[C@@H]2CCCN2c2nc3c(c(Nc4cc(C5CCCC5)n[nH]4)n2)CCC3)CC1 [137b] = 15%
• CC1(C)CCN(C(=O)[C@@H]2CCCN2c2nc3c(c(Nc4cc(C5CCCC5)n[nH]4)n2)CCC3)CC1 [135b] = 43%
• CC(C)c1cc(Nc2nc(N3CCC[C@H]3C(=O)N3CC(F)(F)C(F)(F)C3)nc3c2CCC3)n[nH]1 [112b] = 65%
• CN(C)C(=O)[C@@H]1CCCN1c1nc2c(c(Nc3cc(C4CCOCC4)[nH]n3)n1)CCC2 [91b] = -2%

Please look at the following compound next.
Qu. Which inhibition at 10 µM value belongs to O=C([C@@H]1CCCN1c1nc2c(c(Nc3cc(C4CCCC4)[nH]n3)n1)CCC2)N1CC(F)(F)C(F)(F)C1 [110b] ?
Ans. 34%

###

biological target: activated IR (Homo sapiens); construct: purchased Millipore 14-803; test: In vitro IR enzymatic assay (ADP-Glo); type: biochemical; conditions: compound 30 μM, ATP 50 μM
Sequence (P06213 28-1382): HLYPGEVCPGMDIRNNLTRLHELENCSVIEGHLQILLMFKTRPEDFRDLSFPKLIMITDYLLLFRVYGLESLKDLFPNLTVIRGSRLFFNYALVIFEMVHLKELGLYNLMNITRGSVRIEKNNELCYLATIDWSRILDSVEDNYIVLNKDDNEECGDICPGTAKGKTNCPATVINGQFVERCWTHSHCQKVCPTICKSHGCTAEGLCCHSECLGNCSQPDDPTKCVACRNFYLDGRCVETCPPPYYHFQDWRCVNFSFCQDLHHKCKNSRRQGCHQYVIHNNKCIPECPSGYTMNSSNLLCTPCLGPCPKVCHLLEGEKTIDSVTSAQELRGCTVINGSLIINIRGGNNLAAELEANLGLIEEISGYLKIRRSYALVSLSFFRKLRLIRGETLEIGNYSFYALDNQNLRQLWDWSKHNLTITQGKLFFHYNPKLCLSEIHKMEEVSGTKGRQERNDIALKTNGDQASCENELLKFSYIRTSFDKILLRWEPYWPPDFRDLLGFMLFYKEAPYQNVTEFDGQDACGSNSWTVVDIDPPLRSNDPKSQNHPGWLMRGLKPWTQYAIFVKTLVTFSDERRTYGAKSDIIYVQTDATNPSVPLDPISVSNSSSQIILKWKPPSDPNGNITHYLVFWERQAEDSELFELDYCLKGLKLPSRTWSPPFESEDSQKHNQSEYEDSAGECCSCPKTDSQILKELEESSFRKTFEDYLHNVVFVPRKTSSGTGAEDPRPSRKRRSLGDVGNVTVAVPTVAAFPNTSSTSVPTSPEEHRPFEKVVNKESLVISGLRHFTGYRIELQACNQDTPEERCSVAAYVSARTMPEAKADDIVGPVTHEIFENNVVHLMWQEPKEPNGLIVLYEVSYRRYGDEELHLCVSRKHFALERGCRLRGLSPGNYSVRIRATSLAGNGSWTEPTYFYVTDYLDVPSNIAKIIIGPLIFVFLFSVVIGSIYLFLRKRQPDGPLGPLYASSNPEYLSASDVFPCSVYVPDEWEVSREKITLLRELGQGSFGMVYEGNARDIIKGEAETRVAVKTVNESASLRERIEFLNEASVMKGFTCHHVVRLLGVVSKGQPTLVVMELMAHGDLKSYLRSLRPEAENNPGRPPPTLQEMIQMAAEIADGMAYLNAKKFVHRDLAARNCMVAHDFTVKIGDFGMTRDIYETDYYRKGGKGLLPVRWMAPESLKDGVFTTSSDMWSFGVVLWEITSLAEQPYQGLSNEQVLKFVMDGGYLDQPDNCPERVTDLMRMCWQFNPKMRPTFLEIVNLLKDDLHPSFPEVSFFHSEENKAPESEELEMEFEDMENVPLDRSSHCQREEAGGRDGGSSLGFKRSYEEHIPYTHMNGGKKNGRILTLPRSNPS
READOUT: inhibition at 30 µM (%)
Give the number; % is assumed, so skip it.

Past entries and their recorded results:
- CN(C)C(=O)[C@@H]1CCCN1c1nc2c(c(Nc3cc(C4CCOCC4)[nH]n3)n1)CCC2 [91b]: 7
- CC(C)c1cc(Nc2nc(N3CCC[C@H]3C(=O)N3CC(F)(F)C(F)(F)C3)nc3c2CCC3)n[nH]1 [112b]: 89
- CC1(C)CCN(C(=O)[C@@H]2CCCN2c2nc3c(c(Nc4cc(C5CCCC5)n[nH]4)n2)CCC3)CC1 [135b]: 88
- CC(=O)N1CCN(C(=O)[C@@H]2CCCN2c2nc3c(c(Nc4cc(C5CCCC5)n[nH]4)n2)CCC3)CC1 [137b]: 60
- CN1CCN(C(=O)[C@@H]2CCCN2c2nc3c(c(Nc4cc(C5CCCC5)[nH]n4)n2)CCC3)CC1 [134b]: 85

Qu. Quick one: inhibition at 30 µM for O=C([C@H]1CCCN1c1nc2c(c(Nc3cc(C4CCCC4)[nH]n3)n1)CCC2)N1CC(F)(F)C(F)(F)C1 [110a] ?
Ans. 97

###

The entries below are paired with their reported pIC50.
Target: FLT3 (ITD) (Homo sapiens)
Sequence (P36888 1-993): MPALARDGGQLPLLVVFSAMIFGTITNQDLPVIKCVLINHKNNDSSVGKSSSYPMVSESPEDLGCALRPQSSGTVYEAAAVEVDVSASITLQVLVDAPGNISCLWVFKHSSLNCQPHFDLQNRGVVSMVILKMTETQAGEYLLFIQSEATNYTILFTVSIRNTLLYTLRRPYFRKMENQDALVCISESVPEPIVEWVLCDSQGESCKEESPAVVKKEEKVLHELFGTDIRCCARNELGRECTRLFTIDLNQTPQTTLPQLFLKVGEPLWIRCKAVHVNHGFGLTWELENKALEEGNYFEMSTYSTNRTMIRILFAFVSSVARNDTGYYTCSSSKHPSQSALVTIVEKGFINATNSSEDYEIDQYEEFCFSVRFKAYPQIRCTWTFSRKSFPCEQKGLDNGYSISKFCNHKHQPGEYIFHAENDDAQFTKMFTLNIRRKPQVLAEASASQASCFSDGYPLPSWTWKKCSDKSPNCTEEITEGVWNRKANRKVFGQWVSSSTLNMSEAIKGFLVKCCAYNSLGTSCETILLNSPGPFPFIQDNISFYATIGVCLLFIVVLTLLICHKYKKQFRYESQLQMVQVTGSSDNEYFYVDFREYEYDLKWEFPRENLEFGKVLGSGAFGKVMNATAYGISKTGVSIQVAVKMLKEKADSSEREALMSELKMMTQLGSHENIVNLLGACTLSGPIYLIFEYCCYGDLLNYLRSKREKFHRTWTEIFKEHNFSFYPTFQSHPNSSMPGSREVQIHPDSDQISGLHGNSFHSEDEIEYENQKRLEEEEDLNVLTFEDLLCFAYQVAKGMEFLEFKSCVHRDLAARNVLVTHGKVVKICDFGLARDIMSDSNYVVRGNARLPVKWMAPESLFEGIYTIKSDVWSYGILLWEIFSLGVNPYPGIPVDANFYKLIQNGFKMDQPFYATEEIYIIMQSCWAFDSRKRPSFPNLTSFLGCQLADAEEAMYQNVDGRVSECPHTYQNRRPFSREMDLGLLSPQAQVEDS
Experiment: HotSpot kinase assay against FLT3 (ITD)
Settings: HotSpot 33P assay, ATP 10 μM
Field pIC50 (float): negative decimal logarithm of the concentration in molar.

Consider the reported pIC50 for these compounds:
- CC(C)c1cc(Nc2nc(N3CCC[C@H]3C(=O)N(C)c3nccs3)nc3c2CCC3)n[nH]1 [68b]: 6.78
- CCN(C(=O)[C@@H]1CCCN1c1nc2c(c(Nc3cc(C(C)C)[nH]n3)n1)CCC2)c1nccs1 [145b]: 6.36
- CC1(C(=O)N2CCC(F)(F)CC2)CCCN1c1nc2c(c(Nc3cc(C4CCCC4)[nH]n3)n1)CCC2 (racemic): 5.83
- CCC(=O)N1CCN(C(=O)[C@@H]2CCCN2c2nc3c(c(Nc4cc(C5CCCC5)[nH]n4)n2)CCC3)CC1 [143b]: 6.51

Please find the next compound below.
Qu. Form field: pIC50 recorded for CCC(=O)N1CCN(C(=O)[C@H]2CCCN2c2nc3c(c(Nc4cc(C5CCCC5)[nH]n4)n2)CCC3)CC1 [143a] with FLT3 (ITD) (Homo sapiens) (enter value)
Ans. 7.86
